target: HIV-1 pseudovirus 263-8 (HIV-1); assay: cell-based or functional assay
MEASUREMENT TYPE: IC80 (neutralization in TZM.bl cells) (µg/mL)
Only the number, expressed in µg/mL, is required.

In the examples that follow, each entry is paired with its recorded IC80 (neutralization in TZM.bl cells).
>>> result_number("MS-77 (antibody, V domains shown) VH: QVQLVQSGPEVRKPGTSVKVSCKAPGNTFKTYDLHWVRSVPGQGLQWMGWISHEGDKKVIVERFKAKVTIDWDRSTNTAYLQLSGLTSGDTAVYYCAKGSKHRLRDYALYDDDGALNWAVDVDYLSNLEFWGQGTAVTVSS VL: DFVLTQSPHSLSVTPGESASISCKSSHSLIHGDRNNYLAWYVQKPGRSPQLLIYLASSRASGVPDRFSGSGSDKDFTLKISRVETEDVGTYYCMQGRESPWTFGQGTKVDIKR")
0.033
>>> result_number("MS-84 (antibody, V domains shown) VH: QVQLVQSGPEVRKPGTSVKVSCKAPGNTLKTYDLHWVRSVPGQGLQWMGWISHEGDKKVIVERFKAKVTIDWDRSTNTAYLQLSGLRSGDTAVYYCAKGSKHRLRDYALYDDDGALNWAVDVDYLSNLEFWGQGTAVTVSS VL: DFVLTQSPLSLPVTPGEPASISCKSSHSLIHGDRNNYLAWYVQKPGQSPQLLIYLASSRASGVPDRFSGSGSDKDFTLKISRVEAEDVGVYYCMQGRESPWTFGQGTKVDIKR")
0.03
>>> result_number("MS-88 (antibody, V domains shown) VH: QVQLVQSGPEVRKPGTSVKVSCKASGYTFKTYDLHWVRSVPGQGLQWMGWISHEGDKKVIVERFKAKVTITRDRSTNTAYLQLSGLTSGDTAVYYCAKGSKHRLRDYALYDDDGALNWAVDVDYLSNLEFWGQGTAVTVSS VL: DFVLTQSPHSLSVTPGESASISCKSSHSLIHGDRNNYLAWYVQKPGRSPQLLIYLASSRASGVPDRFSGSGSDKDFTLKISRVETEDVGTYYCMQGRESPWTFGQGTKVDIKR")
0.99

Here's the next entry for you.
-- ask What value of measured IC80 (neutralization in TZM.bl cells) is listed for MS-81 (antibody, V domains shown) VH: QVQLVQSGPEVRKPGTSVKVSCKAPGNTLKTYDLHWVRSVPGQGLQWMGWISHEGDKKVIVERFKAKVTIDWDRSTNTAYLELSGLTSGDTAVYYCAKGSKHRLRDYALYDDDGALNWAVDVDYLSNLEFWGQGTAVTVSS VL: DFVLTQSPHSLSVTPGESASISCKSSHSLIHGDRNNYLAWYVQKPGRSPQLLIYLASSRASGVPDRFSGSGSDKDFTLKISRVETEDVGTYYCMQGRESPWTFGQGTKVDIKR ?
-- reply 0.037

Where do the numbers come from? From patent US20220025021A1.
